Source of measurements: paper PMC11931385

# Tgt: T1, retinoblastoma protein pocket domain (Rb^P), wild type (human, UniProt P06400 380-788)
# T1 construct: also called WT Rb^P; WT
# T1 sequence (looked up): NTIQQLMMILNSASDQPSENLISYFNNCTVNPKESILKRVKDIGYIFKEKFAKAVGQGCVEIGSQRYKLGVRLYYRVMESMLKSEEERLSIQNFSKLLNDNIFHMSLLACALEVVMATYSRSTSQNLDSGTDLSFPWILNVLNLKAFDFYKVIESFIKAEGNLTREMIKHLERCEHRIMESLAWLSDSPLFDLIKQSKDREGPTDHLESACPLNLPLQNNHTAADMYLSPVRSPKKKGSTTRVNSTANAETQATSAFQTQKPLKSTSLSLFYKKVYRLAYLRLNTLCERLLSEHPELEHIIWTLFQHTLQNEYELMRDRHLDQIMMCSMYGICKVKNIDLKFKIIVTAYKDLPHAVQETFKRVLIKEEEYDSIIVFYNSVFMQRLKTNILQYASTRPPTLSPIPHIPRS
# Assay Procedure: fluorescence polarisation; 37 °C, after the 25 °C reading ramped over 7 min to 37 °C and 2 min incubation; unlabeled Rb^P against 1.5 nM TMR-E2F1^TD or 7.5 nM TMR-E7^LxCxE; 25 mM Tris pH 8.0, 200 mM NaCl, 1 mM DTT, 0.1% Tween-20; apparent Kd
# Settings: both partners purified
No end group written: not given here. TMR = tetramethyl rhodamine dye
Readout Type: Kd
Give me the value, and tack the unit on after it.

* DLYCYEQLN (also: TMR label, position not given here, source: synthetic peptide, bought: GenScript) [TMR-E7^LxCxE, LxCxE peptide of the E7 oncoprotein from HPV] | 12 nM

Please examine the following record next.
Memo: {TMR}-GEGIRDLFDCDFGDLTPLD (also called E2F^TD; source: synthetic peptide, bought: GenScript) [TMR-E2F1^TD, peptide of the E2F1 transactivation domain] , reported Kd: 22 nM
